Experiment: AUC in plasma of healthy human at 400 mg, po by microdialysis
Type: ADME, organism-based
For each entry below, report its AUC value.
The answer is to be given in ng·h/mL; state only the numeric part.

Supply AUC value. Item: COCC1=C(C(=O)O)N2C(=O)[C@@H](NC(=O)/C(=N\OC)c3csc(N)n3)[C@H]2SC1
22400

Quickly give me recorded AUC for C=CC1=C(C(=O)O)N2C(=O)[C@@H](NC(=O)/C(=N\OCC(=O)O)c3csc(N)n3)[C@H]2SC1
25600

====

Assay: AUC in plasma of healthy human at 500 mg, po administered at tablet formulation with immediate release by microdialysis
Type: ADME, organism-based
MEASURED PARAMETER: AUC (ng·h/mL)
State just the number; it will be interpreted in ng·h/mL.

Note AUC for the molecule shown: N[C@@H](C(=O)N[C@@H]1C(=O)N2C(C(=O)O)=C(Cl)CS[C@H]12)c1ccccc1 [CEFACLOR ANHYDROUS]
17600

Reference source: ChEMBL document CHEMBL1649472
